Biological target: FGFR1 (UniProt P11362)
Sequence (P11362 whole entry, looked up): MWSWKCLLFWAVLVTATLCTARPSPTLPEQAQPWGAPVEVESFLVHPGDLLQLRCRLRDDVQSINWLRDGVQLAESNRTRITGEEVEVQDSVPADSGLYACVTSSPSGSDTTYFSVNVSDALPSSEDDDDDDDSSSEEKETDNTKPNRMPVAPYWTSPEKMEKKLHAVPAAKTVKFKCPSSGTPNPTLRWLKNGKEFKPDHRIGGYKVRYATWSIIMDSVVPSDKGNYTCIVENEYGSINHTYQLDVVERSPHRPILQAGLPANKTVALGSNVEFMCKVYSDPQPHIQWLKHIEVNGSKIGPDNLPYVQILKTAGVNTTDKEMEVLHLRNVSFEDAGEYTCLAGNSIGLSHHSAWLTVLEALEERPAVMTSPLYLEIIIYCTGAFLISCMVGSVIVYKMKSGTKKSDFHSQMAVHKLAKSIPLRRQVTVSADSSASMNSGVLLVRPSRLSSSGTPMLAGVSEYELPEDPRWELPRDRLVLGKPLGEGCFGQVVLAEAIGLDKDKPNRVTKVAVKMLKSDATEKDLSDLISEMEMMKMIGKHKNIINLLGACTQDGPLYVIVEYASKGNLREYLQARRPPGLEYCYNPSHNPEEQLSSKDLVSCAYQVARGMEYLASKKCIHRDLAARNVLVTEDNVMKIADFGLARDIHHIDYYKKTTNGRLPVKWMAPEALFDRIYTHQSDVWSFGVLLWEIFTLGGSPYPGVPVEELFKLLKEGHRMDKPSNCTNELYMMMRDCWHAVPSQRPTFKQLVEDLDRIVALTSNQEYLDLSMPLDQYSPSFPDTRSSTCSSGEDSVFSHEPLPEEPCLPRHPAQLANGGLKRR
Experiment: phosphorylation enrichment, bacterial display (enrichment ratio); higher = better substrate or ligand; peptides without Tyr show the background;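 also: 11-residue human phosphosite peptides and single-mutation variants displayed on the E. coli surface, counted by deep sequencing, each peptide's frequency after selection divided by its frequency in the unselected input library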;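 also: frequency after pTyr selection over input frequency; kinase dosed for 20-30% of maximal phosphorylation in three min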
readout_label: phosphorylation enrichment
Form: value (number only, do not type unit).

phosphorylation enrichment of DPHECYAKVFN [ALB_Y394_D399N] , assay on FGFR1 (UniProt P11362), is 0.589

phosphorylation enrichment of LDFPEYDGVDR [CASQ1_Y43] , assay on FGFR1 (UniProt P11362), is 0.59

phosphorylation enrichment of ALEHKYWALGQ [MAP1A_Y1555_Q1553H] , assay on FGFR1 (UniProt P11362), is 0.601

phosphorylation enrichment of ADGLEYSRTGL [MMUT_Y287] , assay on FGFR1 (UniProt P11362), is 0.602

phosphorylation enrichment of PEFMVYKPQME [CCRL2_Y170_V168M] , assay on FGFR1 (UniProt P11362), is 0.592

phosphorylation enrichment of IKKLIYVHLVI [JAGN1_Y42] , assay on FGFR1 (UniProt P11362), is 0.604

Value source: the supplement of paper PMC10065799
